- System: Fibroblast
- Method Notes: Incucyte cell viability with human fibroblast; further: unitless GR value; below 1 slowed growth and below 0 cell loss
- Format: toxicity, cell-based
- Test Settings: 18 h, 10 µM, compound concentration 10 uM, replicate number 1, timepoint 18 hours

{"Molecule": "CS(=O)(=O)c1ccc(C(=O)Nc2ccc(Cl)c(-c3ccccn3)c2)c(Cl)c1 [VISMODEGIB]", "Growth Rate": 0.67}
{"Molecule": "CCCCOCCOc1nc(-c2ccc(C(=O)O)c(F)c2)sc1C", "Growth Rate": 0.35}
{"Molecule": "c1ccc(NCc2ccc(CNc3ccccn3)cc2)nc1", "Growth Rate": 0.88}
{"Molecule": "CC(COc1ccccc1)N(CCCl)Cc1ccccc1.Cl (stereo not given) [PHENOXYBENZAMINE HYDROCHLORIDE]", "Growth Rate": 0.49}
{"Molecule": "O=c1c2cccn2c2ccccc2n1CCCN1CCC(c2ccc(Cl)cc2)CC1", "Growth Rate": -0.55}

---

- Test system: U2OS
- Method Notes: Incucyte cell viability with U2OS; further: unitless GR value; below 1 slowed growth and below 0 cell loss
- Assay type: toxicity, cell-based
- Test Settings: human, 0 h, 10 µM, compound concentration 10 uM, replicate number 2, timepoint 0 hours

{"Molecule": "COC[C@@H](c1ccc(C(F)(F)F)cc1)N1CCN(C2(C)CCN(C(=O)c3c(C)ncnc3C)CC2)C[C@@H]1C.O=C(O)/C=C\\C(=O)O [VICRIVIROC MALEATE]", "Growth Rate": -0.31}
{"Molecule": "O=C1Nc2ccc(I)cc2/C1=C/c1cc(Br)c(O)c(Br)c1", "Growth Rate": -0.15}
{"Molecule": "O=C(O)Cc1ccccc1Nc1c(Cl)cccc1Cl", "Growth Rate": -1}
{"Molecule": "CC(C)(C)c1ccc(S(=O)(=O)Nc2ccc(Cl)cc2C(=O)c2cc[n+]([O-])cc2)cc1", "Growth Rate": -1}
{"Molecule": "CCCCCCCCCCCCC/C=C/[C@@H](O)[C@@H](N)COP(=O)(O)O", "Growth Rate": 0.31}
{"Molecule": "CC(C)(O)C(=O)N1CCN(c2ccc(C(F)(F)F)c(C3=C(c4c[nH]c5ccccc45)C(=O)NC3=O)c2)CC1", "Growth Rate": 0.29}
{"Molecule": "C[C@@H]1CN(Cc2ccc(F)cc2)CCN1C(=O)COc1ccc(Cl)cc1NC(N)=O [BX 471 FREE BASE]", "Growth Rate": -1}
{"Molecule": "COc1cc(Nc2ncc3c(n2)-c2ccc(Cl)cc2C(c2c(F)cccc2OC)=NC3)ccc1C(=O)O", "Growth Rate": 0.41}
{"Molecule": "N[C@@H](CCP(=O)(O)O)C(=O)O", "Growth Rate": -1}
{"Molecule": "Cc1cccc(NC(=O)CN2CCC(c3ccccn3)CC2)c1.Cl.Cl", "Growth Rate": -1}
{"Molecule": "Cc1c(CC(=O)O)c2cccnc2n1Cc1ccc(S(C)(=O)=O)cc1C(F)(F)F", "Growth Rate": -1}
{"Molecule": "COC(c1ccccc1)(c1ccccc1)[C@H](Oc1nc(C)cc(C)n1)C(=O)O", "Growth Rate": -1}
{"Molecule": "O=C(Nc1cc(C(F)(F)F)ccc1N1CCN(Cc2ccccn2)CC1)c1ccc(-c2ccncc2)o1", "Growth Rate": -1}
{"Molecule": "O=C(NC[C@@H]1[C@H]2CN(C(=O)OCc3cc(C(F)(F)F)cc(C(F)(F)F)c3)C[C@@H]12)c1ccc2[nH]nnc2c1", "Growth Rate": 0.37}
{"Molecule": "CC(C)Cc1ccc([C@@H](C)C(=O)NS(C)(=O)=O)cc1", "Growth Rate": -1}
{"Molecule": "COc1cc2nc(N3CCN(C(=O)C4CCCO4)CC3)nc(N)c2cc1OC.Cl.O.O (stereo not given) [TERAZOSIN HYDROCHLORIDE]", "Growth Rate": 0.74}
{"Molecule": "Cc1c(Cc2ccc3ccccc3n2)c2cc(F)ccc2n1CC(=O)O", "Growth Rate": -1}
{"Molecule": "NC(=O)c1cc2c(-c3ccc(C(=O)NCc4ccnc(Cl)c4)s3)cccc2s1", "Growth Rate": -0.83}
{"Molecule": "N[C@](CC1c2ccccc2Oc2ccccc21)(C(=O)O)[C@H]1C[C@@H]1C(=O)O", "Growth Rate": 0.8}
{"Molecule": "CCc1cc2cc(NS(=O)(=O)c3ccc(C#N)cc3)ccc2n(CC)c1=O", "Growth Rate": -0.07}
{"Molecule": "N=C(N)NCCC[C@@H](NC(=O)C(c1ccccc1)c1ccccc1)C(=O)NCc1ccc(CNC(N)=O)cc1.O=C(O)C(F)(F)F.O=C(O)C(F)(F)F", "Growth Rate": 0.75}
{"Molecule": "CCCN[C@H]1CCc2nc(N)sc2C1.Cl.Cl", "Growth Rate": 0.18}
{"Molecule": "CC(C)n1cc(-c2ccc(N3CCN(C)CC3)c(NC(=O)c3ccc(-c4ccncc4)o3)c2)cn1", "Growth Rate": -1}
{"Molecule": "COC1(C[S@@+]([O-])c2ccccc2)CCN(CCc2c[nH]c3ccc(F)cc23)CC1", "Growth Rate": -1}
{"Molecule": "CN1CCN(c2nc3cc(C(F)(F)F)ccc3n3cccc23)CC1.O=C(O)/C=C\\C(=O)O.O=C(O)/C=C\\C(=O)O", "Growth Rate": -1}
{"Molecule": "CC1=C(C)C(=O)C(C(CCCCCC(=O)O)c2ccccc2)=C(C)C1=O (stereo not given)", "Growth Rate": -1}
{"Molecule": "O=C(O)c1cccc(/C=C2/C[C@@H]3[C@@H](/C=C/[C@H](O)C4CCCCC4)[C@H](O)C[C@@H]3O2)c1", "Growth Rate": 0.48}
{"Molecule": "CC[S+]([O-])c1nc(-c2cccc(OCc3ccccc3)c2)cc(C(F)(F)F)n1 (stereo not given)", "Growth Rate": -1}
{"Molecule": "CN1CCN2c3ncccc3Cc3ccccc3C2C1 (stereo not given)", "Growth Rate": -0.76}
{"Molecule": "Cc1cc(Cn2cnc3c2C[C@@H](C(=O)O)N(C(=O)C(c2ccccc2)c2ccccc2)C3)ccc1N(C)C", "Growth Rate": 0.34}
{"Molecule": "CN(C)CCCc1cc(C(=O)Nc2ccc(-c3ccncc3)cc2)ccc1O.Cl.Cl", "Growth Rate": -0.87}
{"Molecule": "CS(=O)(=O)c1ccc(C(=O)Nc2ccc(Cl)c(-c3ccccn3)c2)c(Cl)c1", "Growth Rate": -1}
{"Molecule": "O=C1c2c(Br)c(Br)c(Br)c(Br)c2C(=O)N1c1ncc[nH]1", "Growth Rate": -1}
{"Molecule": "Cl.O=C1CC[C@@]2(O)[C@H]3Cc4ccc(O)c5c4[C@@]2(CCN3CC2CC2)[C@H]1O5 [NALTREXONE HYDROCHLORIDE]", "Growth Rate": -1}
{"Molecule": "CN[C@@H](C)C(=O)N[C@H](C(=O)N1CCC[C@H]1C(=O)Nc1snnc1-c1ccccc1)C1CCCCC1", "Growth Rate": 0.74}

---

- Test system: U2OS
- Method Notes: Incucyte cell viability with U2OS; further: unitless GR value; below 1 slowed growth and below 0 cell loss
- Type: toxicity, cell-based
- Test Settings: human, 12 h, 10 µM, compound concentration 10 uM, replicate number 1, timepoint 12 hours
Attribute: Growth Rate

{"Molecule": "COc1cc(/C=C/C(=O)NCCn2c(C)cc3ccccc32)cc(OC)c1OC", "Growth Rate": 0.62}
{"Molecule": "CC(C)[C@H](C(=O)Nc1ccc(C(=O)NO)cc1)c1ccccc1 [AR-42]", "Growth Rate": 0.5}
{"Molecule": "CCCCC[C@H](O)/C=C/[C@H]1[C@H](O)CC(=O)[C@@H]1CCCCCCC(=O)O [ALPROSTADIL]", "Growth Rate": 0.28}
{"Molecule": "Br.Cc1cccc(C2CN(C)CCc3c2cc(O)c(O)c3Cl)c1 (centres undefined)", "Growth Rate": 0.92}
{"Molecule": "Cc1cc(C)cc(C(=O)NOCCCCCC(=O)NO)c1", "Growth Rate": 0.43}
{"Molecule": "C[C@H](CCC(=O)O)[C@H]1CC[C@H]2[C@@H]3CC[C@@H]4C[C@H](O)CC[C@]4(C)[C@H]3CC[C@]12C [LITHOCHOLIC ACID]", "Growth Rate": 0.79}
{"Molecule": "Cc1c(Cc2ccc3ccccc3n2)c2cc(F)ccc2n1CC(=O)O [TIMAPIPRANT]", "Growth Rate": 0.81}
{"Molecule": "Cn1cc(-c2ccc3occ(-c4cccc(-c5ccncc5)c4)c3n2)cn1", "Growth Rate": -0.03}
{"Molecule": "COc1ccc2nc3ccc(OC)cc3c(SCCCN)c2c1.Cl", "Growth Rate": 0.7}
{"Molecule": "CCCCC[C@H](O)/C=C/[C@H]1CCC(=O)[C@@H]1CCCCCCC(=O)O", "Growth Rate": 0.66}
{"Molecule": "CNC[C@H](O)c1ccc(O)c(O)c1 [EPINEPHRINE]", "Growth Rate": 0.43}
{"Molecule": "CC(=O)c1ccc2c(c1)[C@@H]1C=CC[C@@H]1[C@H](c1cc3c(cc1Br)OCO3)N2", "Growth Rate": 0.01}
{"Molecule": "CN(C)CCn1cc(S(=O)(=O)c2cccc(F)c2)c2cccnc21.Cl.Cl", "Growth Rate": 0.39}
{"Molecule": "C[C@]1(O)CC[C@H]2[C@@H]3CCC4=CC(=O)CCC4=C3C=C[C@@]21C [METRIBOLONE]", "Growth Rate": 0.56}
{"Molecule": "CN1CCN(c2ccc(Nc3c4ccccc4nc4ccccc34)cc2)CC1.Cl.Cl.O", "Growth Rate": -0.09}
{"Molecule": "CCCCC1=NC2(CCCC2)C(=O)N1Cc1ccc(-c2ccccc2-c2nnn[nH]2)cc1 [IRBESARTAN]", "Growth Rate": 0.97}
{"Molecule": "N#Cc1cc(F)cc(-c2nc(-c3ccc(F)cn3)no2)c1", "Growth Rate": 0.46}
{"Molecule": "O=c1ccn([C@@H]2O[C@H](COP(=O)([O-])OP(=O)([O-])OP(=O)([O-])OP(=O)([O-])OC[C@H]3O[C@@H](n4ccc(=O)[nH]c4=O)[C@H](O)[C@@H]3O)[C@@H](O)[C@H]2O)c(=O)[nH]1.[Na+].[Na+].[Na+].[Na+] [DIQUAFOSOL TETRASODIUM]", "Growth Rate": 0.47}
{"Molecule": "Cl.FC(F)(F)c1ccc(N2CCNCC2)nc1Cl", "Growth Rate": 0.84}
{"Molecule": "CCc1nnc(NS(=O)(=O)c2ccc(NC(=S)NC(=O)/C=C/c3ccc(F)cc3)cc2)s1", "Growth Rate": 0.77}
{"Molecule": "CN1[C@@H]2CC[C@H]1C[C@@H](OC(=O)C(CO)c1ccccc1)C2 (some centres undefined) [ATROPINE]", "Growth Rate": 0.79}
{"Molecule": "CS(=O)(=O)N1CCCC(NC(=O)[C@H](CCC2CCCCC2)NC(=O)c2ccc(CNc3ncnc4c3nnn4-c3ccccc3)cc2)C1 (some centres undefined) [SR-301]", "Growth Rate": 0.94}
{"Molecule": "Cc1ccccc1C(=O)Nc1ccc(C(=O)N2CCCC(N(C)C)c3ccccc32)cc1.Cl (centres undefined)", "Growth Rate": -0.03}
{"Molecule": "O=C(O)c1ccccc1S(=O)(=O)NCCCCN1C(=O)c2cccc3cccc(c23)C1=O", "Growth Rate": 0.82}
{"Molecule": "Cc1ccccc1N1CCN(S(=O)(=O)C[C@]23CC[C@H](C[C@@H]2NC(=O)[C@@H](N)CCS(C)(=O)=O)C3(C)C)CC1.Cl", "Growth Rate": 0.85}
{"Molecule": "CC[C@@]1(O)C(=O)OCc2c1cc1n(c2=O)Cc2cc3ccccc3nc2-1 [CAMPTOTHECIN]", "Growth Rate": 0.75}
{"Molecule": "Cc1cc(CN)cc(C)c1-c1ncn(C)c1-c1ccnc2cc(F)ccc12", "Growth Rate": 0.64}
{"Molecule": "CC(C)n1cc(-c2ccc(N3CCN(C)CC3)c(NC(=O)c3ccc(-c4ccncc4)o3)c2)cn1", "Growth Rate": 0.36}
{"Molecule": "COC(=O)[C@H]1[C@H]2C[C@H]3c4[nH]c5ccccc5c4CCN3C[C@H]2CC[C@@H]1O.Cl [RAUWOLSCINE HYDROCHLORIDE]", "Growth Rate": 0.61}
{"Molecule": "COC(=O)Nc1nc2ccc(C(=O)c3cccs3)cc2[nH]1 [NOCODAZOLE]", "Growth Rate": 0.1}
{"Molecule": "Br.Br.N=C(N)NCCSC(=N)N", "Growth Rate": 0.88}
{"Molecule": "C[N+]1(C)[C@@H]2C[C@@H](OC(=O)C(O)(c3cccs3)c3cccs3)C[C@H]1[C@@H]1O[C@@H]12.O.[Br-] [TIOTROPIUM BROMIDE]", "Growth Rate": 0.64}
{"Molecule": "C[C@H](N)Cn1ccc2cc(F)c(Cl)cc21.O=C(O)/C=C/C(=O)O", "Growth Rate": 0.57}
{"Molecule": "CCC(=O)OCC(=O)[C@@]1(OC(=O)CC)[C@@H](C)C[C@H]2[C@@H]3CCC4=CC(=O)C=C[C@]4(C)[C@@]3(Cl)[C@@H](O)C[C@@]21C [BECLOMETHASONE DIPROPIONATE]", "Growth Rate": 0.81}
